Data origin, for the record: the RNAGym collection of RNA variant scans (doi:10.1073/pnas.2313332121)

B1: TPR 5TU (parent)
chain: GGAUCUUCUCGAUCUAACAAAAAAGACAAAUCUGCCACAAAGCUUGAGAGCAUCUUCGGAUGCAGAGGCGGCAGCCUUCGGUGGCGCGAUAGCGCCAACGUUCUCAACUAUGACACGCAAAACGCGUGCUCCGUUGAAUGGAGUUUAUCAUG

- Variants of: B1
- Assay Details: polymerase ribozyme fitness, log enrichment relative to wild type (log ratio); higher = more active; in vitro selection for triplet polymerase activity
Variants at the floor of the assay were thinned out.
Parameter Measured: polymerase ribozyme fitness (log ratio)

>>> df
                            mutation_label                       parameter_measured  relation_symbol  data_value
 0          A12C A21G C36A G48A C93A U135G  polymerase ribozyme fitness (log ratio)                ≤        -4.2
 1                  G92A C116U C125U U134C  polymerase ribozyme fitness (log ratio)                ≤        -4.2
 2                               C54U G83U  polymerase ribozyme fitness (log ratio)                =      -0.319
 3                                C5U C93G  polymerase ribozyme fitness (log ratio)                =       -3.16
 4    A23U U56A A73U G86A C93G C131G U139C  polymerase ribozyme fitness (log ratio)                ≤        -4.2
 5                              U77C C116U  polymerase ribozyme fitness (log ratio)                =       -3.64
 6  A40U G42A C63U C114U A119C G141U G143A  polymerase ribozyme fitness (log ratio)                ≤        -4.2
 7                               G80C G92U  polymerase ribozyme fitness (log ratio)                =       -3.97
 8                               C51A A91G  polymerase ribozyme fitness (log ratio)                =       -3.53
 9   A60G G67A U78G C96G A120U G140U A147G  polymerase ribozyme fitness (log ratio)                ≤        -4.2
10                          A24U U56A G62C  polymerase ribozyme fitness (log ratio)                =       -1.06
